Test system: LN229 human glioma cells
Experiment: MTT assay, rolipram vs POH-Rolipram, LN229
Format: cell-based
Settings: 48 hours, MTT
outcome measure: IC50

[
  {
    "compound": "C=C(C)C1CC=C(COC(=O)N2CC(c3ccc(OC)c(OC4CCCC4)c3)CC2=O)CC1 (stereo not shown) [POH-rolipram]",
    "outcome measure": "IC50",
    "experimental value": "100 µM"
  }
]

----------
Tested on: U87 human glioma cells
Test: MTT assay, rolipram vs POH-Rolipram, U87
Type: cell-based
Details: Homo sapiens, U-87 MG, U-87 cells, 48 hours
pIC50: −log10 of the molar value.

[
  {
    "molecule": "COc1ccc(C2CNC(=O)C2)cc1OC1CCCC1 (stereo not shown) [rolipram, reference compound]",
    "pIC50": "< 3.00"
  }
]

----------
Test system: MyLa cells
Assay: MTT cell viability assay, MyLa (Example 15)
Assay type: cell-based, human
Settings: 96 hours
pIC50: −log10 of the molar value.

[
  {
    "compound": "C=C(C)C1CC=C(COC(=O)NC(=O)c2ncn3c(=O)n(C)nnc23)CC1 (stereo not shown) [NEO212]",
    "pIC50": "~4.07"
  }
]

Sourced from patent US20220378780A1
